Sourced from ChEMBL document CHEMBL1629705

# Test system: Hepatitis C virus
# PROCEDURE_TEXT: Antiviral activity against Hepatitis C virus Con1 infected in human lunet cells assessed as inhibition of viral RNA replication after 4 days by luciferase reporter gene assay
# Assay type: functional, organism-based, Hepacivirus hominis
# CONDITION_PARAMETERS: 96 h
Give measured EC50 for each item. Keep answers brief.
Report field: quantity (unit follows the number).

| COMPOUND | EC50 |
| --- | --- |
| CC(C)OC(=O)[C@H](C)NP(=O)(OC[C@H]1O[C@@H](n2ccc(=O)[nH]c2=O)[C@](C)(F)[C@@H]1O)Oc1ccccc1 (some centres not stated) | 1340 nM |

Exercise: Consider the compound `C[C@@]1(F)[C@H](O)[C@@H](CO)O[C@H]1n1ccc(N)nc1=O` and give its measured EC50.
Key: 75 nM

====

# PROCEDURE_TEXT: Cytotoxicity against human BxPC3 cells assessed as effect on cellular GAPDH RNA level after 8 days by quantitative real-time PCR
# Assay type: cell-based, BXPC-3
MEASURE: CC50 at 192 h

Exercise: Consider the molecule CC(C)OC(=O)[C@H](C)NP(=O)(OC[C@H]1O[C@@H](n2ccc(=O)[nH]c2=O)[C@](C)(F)[C@@H]1O)Oc1ccccc1 (stereo partly specified) and give its measured CC50 at 192 h.
Key: > 100 µM

====

# Test system: Influenza A virus
# PROCEDURE_TEXT: Antiviral activity against Influenza A virus (A/Brisbane/10/2007(H3N2)) infected in HFF by neutral red assay
# Assay type: functional, organism-based
pEC50: −log10 of the molar value.
MEASURE: pEC50

Exercise: Influenza A virus / pEC50 / CC(C)OC(=O)[C@H](C)NP(=O)(OC[C@H]1O[C@@H](n2ccc(=O)[nH]c2=O)[C@](C)(F)[C@@H]1O)Oc1ccccc1 (stereo partly specified) : value?
Key: < 4.00

====

# PROCEDURE_TEXT: Cytotoxicity against human CEM cells assessed as effect on cellular GAPDH RNA level after 8 days by quantitative real-time PCR
# Assay type: cell-based
# CONDITION_PARAMETERS: CEM (CCRF-CEM) cells
MEASURE: CC50 at 192 h

Exercise: Consider the compound CC(C)OC(=O)[C@H](C)NP(=O)(OC[C@H]1O[C@@H](n2ccc(=O)[nH]c2=O)[C@](C)(F)[C@@H]1O)Oc1ccccc1 (stereo partly specified) and give its measured CC50 at 192 h.
Key: > 100 µM

====

# PROCEDURE_TEXT: Cytotoxicity against human HeLaP4 cells
# Type: cell-based
MEASURE: CC50

Exercise: Consider the compound CC(C)OC(=O)[C@H](C)NP(=O)(OC[C@H]1O[C@@H](n2ccc(=O)[nH]c2=O)[C@](C)(F)[C@@H]1O)Oc1ccccc1 (stereo partly specified) and give its measured CC50.
Key: > 100 µM
